Observable: melting point

// known answers, use as guide
[
  {
    "Molecule": "COc1ccc(CCc2ccccc2C2(OC)C=CC(C(N)=O)=C(O)C2)cc1OC (centres undefined)",
    "melting point": "146 to 148 °C"
  },
  {
    "Molecule": "COC(=O)c1cc(N)c(F)c(Cl)n1",
    "melting point": "180 to 183 °C"
  },
  {
    "Molecule": "Fc1ccc(CN2CCN(C3CC=C(c4ccc(C(F)(F)F)cc4)CC3)CC2)cc1 (centres undefined)",
    "melting point": "108 to 109 °C"
  },
  {
    "Molecule": "CC(=O)N1CCCc2ccc(S(=O)(=O)C[N+](=O)[O-])cc21",
    "melting point": "155 °C"
  },
  {
    "Molecule": "CCC(=O)N(C(=O)CC)c1nnc2c3c(c(N4CCCCC4)nn12)CCCC3",
    "melting point": "128 to 129 °C"
  }
]

Need melting point, item "COc1ccc(C(=O)Cc2c(Cl)cncc2Cl)c2c(CC(=O)NCc3ccccc3)coc12"
244 to 246 °C

Need melting point, item "O=C(c1cc(F)ccc1C(F)(F)F)N1CCN(c2ccc(-c3ncc(-c4ccccc4)o3)nn2)CC1"
122 to 125 °C

Need melting point, item CS(=O)(=O)c1ccc(OC2SCC(O)C(O)C2O)cc1 (centres undefined)
180 °C

Need melting point, item "Clc1ccc(N=c2ssnc2Cl)cc1Cl"
89 to 90 °C

Need melting point, item Oc1ccc2sc(-c3ccc(OCCN4CCCC4)cc3)c(Cc3ccc(OC4CCCCC4N4CCCCC4)cc3)c2c1 (centres undefined)
103 to 106 °C

====

Entries and their measured melting point follow.

// known answers, use as guide
[
  {
    "Molecule": "CCCCCCCNC(=O)Nc1ccccc1C(=O)NC1CCN(Cc2ccccc2)CC1",
    "melting point": "134 °C"
  },
  {
    "Molecule": "O=CC(CC(=O)O)NC(=O)C1CCCN2C(=O)CCC(NC(=O)c3ccccc3)C(=O)N12 (stereo not given)",
    "melting point": "143 to 147 °C"
  },
  {
    "Molecule": "Cc1cccc(-c2sc(N)nc2-c2ccc3c(c2)OCO3)n1",
    "melting point": "170 to 172 °C"
  }
]

Need melting point, item CCOc1cc2c(cc1S(=O)(=O)c1ccccc1)[C@@H](N1CCCC1=O)[C@H](O)C(C)(C)O2 (relative stereo)
197 to 198 °C

Need melting point, item CC(Oc1ncn(-c2ccc(C(F)(F)F)cc2)n1)C(=O)N(C)C (stereo not given)
102 to 104 °C

Need melting point, item "O=c1cc(CO)n(Cc2ccccc2)cc1OCc1ccccc1"
146 to 147 °C

Need melting point, item "CC=CCSc1cc(C(=O)O)cc(N)c1-c1ccccc1"
102 to 104 °C

Need melting point, item "CC(=O)OCCn1nc(C)c(-c2ccc3c(c2)NC(=O)CO3)c1-c1ccc(F)cc1"
160 °C

Need melting point, item "C#Cc1ccc(Nc2c(-c3nnc(NCCO)o3)ccc(F)c2F)c(F)c1"
112 to 115 °C

Need melting point, item "COc1ccc(S(=O)(=O)N(CCCO)c2ccc(Cl)cc2Cc2c(F)cccc2F)cc1OC"
138 °C

Need melting point, item "O=C(NCCc1ccccn1)c1ccccc1-c1ccccc1CNS(=O)(=O)c1cccc(F)c1"
123 °C

Need melting point, item "CC(C)(C)Sc1ccc(CN(O)C(N)=O)s1"
101 to 103 °C

Need melting point, item COc1ccc(C2CC(n3ccnc3)c3ccccc3N2)cc1 (stereo not given)
156 to 158 °C

Need melting point, item "CCOC(=O)/C(=C\Nc1cc(C)cc(C)c1)c1ccc(OC)cc1"
93 to 94 °C

Need melting point, item "COc1ccc2c(c1)C(=O)c1c-2c(Cl)nc2ccccc12"
227 to 228 °C
